TESTED SYSTEM: Adenosine receptor A1 (Homo sapiens, UniProt P30542)
Sequence (P30542 whole entry): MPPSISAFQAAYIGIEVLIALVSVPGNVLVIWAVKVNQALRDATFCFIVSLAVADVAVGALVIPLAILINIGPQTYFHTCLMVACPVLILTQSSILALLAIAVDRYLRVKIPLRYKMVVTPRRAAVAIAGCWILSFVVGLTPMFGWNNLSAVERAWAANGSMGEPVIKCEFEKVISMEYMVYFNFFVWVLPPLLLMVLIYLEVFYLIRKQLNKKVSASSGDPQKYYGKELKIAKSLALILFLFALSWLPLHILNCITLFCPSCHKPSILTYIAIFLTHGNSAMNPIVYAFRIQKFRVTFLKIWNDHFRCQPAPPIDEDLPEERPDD
ASSAY PROCEDURE: Displacement of [3H]DPCPX from recombinant human A1 receptor expressed in CHO cell membranes measured after 90 mins by scintillation counting method
pKi: −log10 of the molar value.
MEASUREMENT NAME: pKi

Examples from the recorded data:
| MOLECULE | pKi |
| --- | --- |
| CCn1nc(-c2cccs2)c2sccc2c1=O | 6.14 |
| CC(C)n1nc(-c2ccccn2)c2sccc2c1=O | 6.04 |
| Nn1nc(-c2ccccn2)c2sccc2c1=O | 5.43 |
| Nn1nc(-c2nccs2)c2sccc2c1=O | 5.54 |
| CCn1nc(-c2ccccc2)c2sccc2c1=O | 5.57 |

(A) CCn1nc(-c2nccs2)c2sccc2c1=O
(B) O=c1[nH]nc(-c2nccs2)c2sccc12
Could you tell me which of A and B has the lower pKi reading? Please respond with the label that marks your chosen entry.
B

(A) CCn1nc(-c2ccccn2)c2sccc2c1=O
(B) Nn1nc(-c2cccs2)c2sccc2c1=O
// which entry has the larger pKi value, A or B ? Please respond with the label that marks your chosen entry.
A

====

TESTED SYSTEM: Adenosine receptor A2b (Homo sapiens)
ASSAY PROCEDURE: Antagonist activity at recombinant human A2B receptor expressed in CHO cells assessed as inhibition of NECA-stimulated cAMP production at 0.001 to 1 uM by Alpha screen assay relative to control
Assay type: functional, cell-based
MEASUREMENT NAME: inhibition (%)

| MOLECULE | MEASUREMENT NAME | READOUT VALUE |
| --- | --- | --- |
| CCn1nc(-c2nccs2)c2sccc2c1=O | inhibition | 1 |
| CCc1nn(CC)c(=O)c2ccsc12 | inhibition | 1 |
| Nn1nc(-c2nccs2)c2sccc2c1=O | inhibition | 1 |
| Nn1nc(-c2ccccn2)c2sccc2c1=O | inhibition | 1 |
| Nn1nc(-c2ccccc2)c2sccc2c1=O | inhibition | 1 |
| Nn1nc(-c2cccs2)c2sccc2c1=O | inhibition | 1 |
| CCn1nc(-c2ccccc2)c2sccc2c1=O | inhibition | 1 |

====

TESTED SYSTEM: Adenosine receptor A2a (Homo sapiens)
ASSAY PROCEDURE: Displacement of [3H]-ZM241385 from recombinant human A2A receptor expressed in CHO cell membranes measured after 60 mins by scintillation counting method
MEASUREMENT NAME: Ki (µM)

| MOLECULE | MEASUREMENT NAME | DISPLAY UNIT | READOUT VALUE |
| --- | --- | --- | --- |
| O=c1[nH]nc(-c2nccs2)c2sccc12 | Ki | µM | 3.39 |
| CCn1nc(-c2ccccn2)c2sccc2c1=O | Ki | µM | 2.87 |
| CCc1nn(CC)c(=O)c2cc(-c3ccccc3)sc12 | Ki | µM | 3.14 |
| CCn1nc(-c2nccs2)c2sccc2c1=O | Ki | µM | 2.49 |

====

TESTED SYSTEM: Adenosine receptor A2a (Homo sapiens, UniProt P29274)
Sequence (P29274 whole entry): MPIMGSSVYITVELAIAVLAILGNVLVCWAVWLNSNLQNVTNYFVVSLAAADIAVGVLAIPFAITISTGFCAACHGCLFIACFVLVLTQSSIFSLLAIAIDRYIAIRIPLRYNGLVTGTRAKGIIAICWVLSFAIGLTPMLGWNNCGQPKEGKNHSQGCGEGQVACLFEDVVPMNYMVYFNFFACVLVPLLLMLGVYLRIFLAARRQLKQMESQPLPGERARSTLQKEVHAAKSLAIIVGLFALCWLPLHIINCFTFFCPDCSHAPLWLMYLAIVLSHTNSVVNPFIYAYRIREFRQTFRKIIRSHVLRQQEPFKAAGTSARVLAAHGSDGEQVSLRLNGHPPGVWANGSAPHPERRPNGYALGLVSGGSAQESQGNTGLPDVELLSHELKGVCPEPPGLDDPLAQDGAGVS
ASSAY PROCEDURE: Displacement of [3H]-ZM241385 from recombinant human A2A receptor expressed in CHO cell membranes at 1 uM measured after 60 mins by scintillation counting method relative to control
MEASUREMENT NAME: inhibition (%)

| MOLECULE | READOUT VALUE |
| --- | --- |
| CCc1nn(CC)c(=O)c2ccsc12 | 7 |
| Nn1nc(-c2nccs2)c2sccc2c1=O | 15 |
| Nn1nc(-c2cccs2)c2sccc2c1=O | 1 |

(I) CC(C)n1nc(-c2ccccn2)c2sccc2c1=O
(II) Nn1nc(-c2ccccn2)c2sccc2c1=O
Could you tell me which of I and II has the lower inhibition reading? Please respond with the label that marks your chosen entry.
II
(II: 1%, I: 2%)

====

TESTED SYSTEM: Adenosine receptor A3 (Homo sapiens)
Sequence (whole entry): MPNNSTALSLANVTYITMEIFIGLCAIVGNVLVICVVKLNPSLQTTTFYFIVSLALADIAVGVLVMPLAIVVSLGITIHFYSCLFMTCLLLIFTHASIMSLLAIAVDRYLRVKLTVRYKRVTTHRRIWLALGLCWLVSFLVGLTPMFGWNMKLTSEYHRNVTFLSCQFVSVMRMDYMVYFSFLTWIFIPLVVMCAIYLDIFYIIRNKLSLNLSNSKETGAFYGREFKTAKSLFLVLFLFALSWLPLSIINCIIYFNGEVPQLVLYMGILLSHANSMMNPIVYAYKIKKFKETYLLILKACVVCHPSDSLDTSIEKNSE
ASSAY PROCEDURE: Displacement of [125I]-ABMECA from recombinant human A3 receptor expressed in CHO cell membranes at 1 uM measured after 120 mins by scintillation counting method relative to control
MEASUREMENT NAME: inhibition (%)

Examples from the recorded data:
| MOLECULE | TESTED SYSTEM | DISPLAY UNIT | READOUT VALUE |
| --- | --- | --- | --- |
| Nn1nc(-c2cccs2)c2sccc2c1=O | Adenosine receptor A3 (Homo sapiens) | % | 1 |
| CC(C)n1nc(-c2ccccn2)c2sccc2c1=O | Adenosine receptor A3 (Homo sapiens) | % | 2 |
| Nn1nc(-c2nccs2)c2sccc2c1=O | Adenosine receptor A3 (Homo sapiens) | % | 5 |

(a) CCc1nn(CC)c(=O)c2cc(-c3ccccc3)sc12
(b) Nn1nc(-c2ccccn2)c2sccc2c1=O
Could you tell me which of a and b has the lower inhibition reading? Please respond with the label that marks your chosen entry.
b
(b: 1%, a: 10%)

====

TESTED SYSTEM: Adenosine receptor A3 (Homo sapiens)
ASSAY PROCEDURE: Displacement of [125I]-ABMECA from recombinant human A3 receptor expressed in CHO cell membranes measured after 120 mins by scintillation counting method
MEASUREMENT NAME: Ki (nM)

| MOLECULE | DISPLAY UNIT | Ki |
| --- | --- | --- |
| CCn1nc(-c2nccs2)c2sccc2c1=O | nM | 2930 |
| CCn1nc(-c2ccccc2)c2sccc2c1=O | nM | 2590 |

====

TESTED SYSTEM: Adenosine receptor A2a (Homo sapiens)
ASSAY PROCEDURE: Displacement of [3H]-ZM241385 from recombinant human A2A receptor expressed in CHO cell membranes at 1 uM measured after 60 mins by scintillation counting method relative to control
MEASUREMENT NAME: inhibition (%)

| MOLECULE | DISPLAY UNIT | inhibition |
| --- | --- | --- |
| Nn1nc(-c2ccccc2)c2sccc2c1=O | % | 12 |

(a) CCn1nc(-c2ccccc2)c2sccc2c1=O
(b) CCn1nc(-c2cccs2)c2sccc2c1=O
// which entry has the larger inhibition value, a or b ? Please respond with the label that marks your chosen entry.
a

====

TESTED SYSTEM: Adenosine receptor A3 (Homo sapiens)
ASSAY PROCEDURE: Displacement of [125I]-ABMECA from recombinant human A3 receptor expressed in CHO cell membranes at 1 uM measured after 120 mins by scintillation counting method relative to control
MEASUREMENT NAME: inhibition (%)

Examples from the recorded data:
| MOLECULE | TESTED SYSTEM | inhibition / % |
| --- | --- | --- |
| CCn1nc(-c2cccs2)c2sccc2c1=O | Adenosine receptor A3 (Homo sapiens) | 1 |
| O=c1[nH]nc(-c2nccs2)c2sccc12 | Adenosine receptor A3 (Homo sapiens) | 1 |

(A) CCc1nn(CC)c(=O)c2ccsc12
(B) CCn1nc(-c2ccccn2)c2sccc2c1=O
// which entry has the larger inhibition value, A or B ? Please respond with the label that marks your chosen entry.
A
(A: 14%, B: 1%)
